target: MMP-2 (Homo sapiens, UniProt P08253); construct: made in house; host or cells: MMP-2-transfected p2AHT2 cells; assay: In vitro MMP inhibition, Ki determination (fluorogenic substrate II); format: biochemical; details: human recombinant enzyme; 4 μM substrate II; room temperature, 1 hr; read-out: MMP-2 Ki
Sequence (P08253 110-660): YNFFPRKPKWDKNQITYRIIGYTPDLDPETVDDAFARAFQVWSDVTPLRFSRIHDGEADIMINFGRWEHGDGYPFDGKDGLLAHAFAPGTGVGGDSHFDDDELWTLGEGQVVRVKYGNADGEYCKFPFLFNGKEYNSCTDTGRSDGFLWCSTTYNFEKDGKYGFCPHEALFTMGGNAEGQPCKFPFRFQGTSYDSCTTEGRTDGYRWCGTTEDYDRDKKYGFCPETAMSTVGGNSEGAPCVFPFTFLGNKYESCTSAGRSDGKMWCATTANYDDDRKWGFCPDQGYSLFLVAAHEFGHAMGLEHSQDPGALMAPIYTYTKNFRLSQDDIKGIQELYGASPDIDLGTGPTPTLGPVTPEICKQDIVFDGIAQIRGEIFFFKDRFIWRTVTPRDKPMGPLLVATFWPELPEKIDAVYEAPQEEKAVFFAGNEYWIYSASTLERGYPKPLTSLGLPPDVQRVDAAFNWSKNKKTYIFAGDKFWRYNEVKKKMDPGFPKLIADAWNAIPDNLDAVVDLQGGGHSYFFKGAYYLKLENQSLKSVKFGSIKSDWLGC
pKi: −log10 of the molar value. Counter-ions that a name gives are not always drawn.
Is pKi at least 9? Then true. If not, false.

Worked set:
O=C(NO)C1(S(=O)(=O)N2CCN(c3ccc(OCCCC(F)(F)F)cc3)CC2)CCOCC1 [Example 7, Hydrochloride] : true
CCCCCc1ccc(N2CCN(S(=O)(=O)C3(C(=O)NO)CCOCC3)CC2)c(F)c1 [Example 23, Hydrochloride] : false
O=C(NO)C1(S(=O)(=O)N2CCN(c3ccc(OCC4CC4)c(F)c3)CC2)CCN(C2CC2)CC1 [Example 10, dihydrochloride] : true
COCCN1CCC(C(=O)NO)(S(=O)(=O)N2CCN(c3ccc(OCCCC(F)(F)F)cc3)CC2)CC1 [Example 9, Dihydrochloride] : true
O=C(NO)C1(S(=O)(=O)N2CCN(c3ccc(-c4ccccc4)c(F)c3)CC2)CCOCC1 [Example 12, Hydrochloride] : true

[ask] Is reported pKi greater than or equal to 9 here: COc1ccc(-c2cnc(N3CCN(S(=O)(=O)C4(C(=O)NO)CCOCC4)CC3)nc2)cc1 [Example 8, Hydrochloride]
[reply] false

[ask] Is reported pKi greater than or equal to 9 here: O=C(NO)C1(S(=O)(=O)N2CCN(c3ccc(OC(F)(F)C(F)F)cc3)CC2)CCOCC1
[reply] true

[ask] Is reported pKi greater than or equal to 9 here: CCCCCc1ccc(N2CCN(S(=O)(=O)C3(C(=O)NO)CCN(CC)CC3)CC2)cc1F [Example 22, Hydrochloride]
[reply] false

[ask] Is reported pKi greater than or equal to 9 here: COCCOc1ccc(N2CCN(S(=O)(=O)C3(C(=O)NO)CCOCC3)CC2)cc1 [Example 14, Hydrochloride]
[reply] false

====

molecular target: MMP-13 (Homo sapiens); construct: made in house; host or cells: baculovirus / insect cells; assay: In vitro MMP inhibition, IC50 determination (fluorogenic substrate I); format: biochemical; conditions: value in parenthesis; read-out: MMP-13 (IC-50)
pIC50: −log10 of the molar value.
Is pIC50 at least 8? Then 1. If not, -1.

CCCCCCc1ccc(N2CCN(S(=O)(=O)C3(C(=O)NO)CCN(CCOC)CC3)CC2)cc1 [Example 199] : 1
CCCC(C)Cc1ccc(N2CCN(S(=O)(=O)C3(C(=O)NO)CCN(CCOC)CC3)CC2)cc1 (centres unmarked) [Example 189] : 1
CCCOc1ccc(N2CCN(S(=O)(=O)C3(C(=O)NO)CCN(CCOC)CC3)CC2)cc1F [Example 185] : 1
CCC(CC)Cc1ccc(N2CCN(S(=O)(=O)C3(C(=O)NO)CCN(CCOC)CC3)CC2)cc1 [Example 188] : 1

Now examine the next entry.
[ask] Is reported pIC50 greater than or equal to 8 here: COCCN1CCC(C(=O)NO)(S(=O)(=O)N2CCN(c3ccc(CC4CCCCC4)cc3)CC2)CC1 [Example 181]
[reply] -1

====

biological target: MMP-9 (Homo sapiens); construct: made in house; host or cells: MMP-9-transfected HT1080 cells (spent media); experiment: MMP-9 inhibition (in vitro Ki); type: biochemical; details: Table 9; read-out: MMP-9 Ki (IC-50)
Sequence (P14780 107-707 limits assumed): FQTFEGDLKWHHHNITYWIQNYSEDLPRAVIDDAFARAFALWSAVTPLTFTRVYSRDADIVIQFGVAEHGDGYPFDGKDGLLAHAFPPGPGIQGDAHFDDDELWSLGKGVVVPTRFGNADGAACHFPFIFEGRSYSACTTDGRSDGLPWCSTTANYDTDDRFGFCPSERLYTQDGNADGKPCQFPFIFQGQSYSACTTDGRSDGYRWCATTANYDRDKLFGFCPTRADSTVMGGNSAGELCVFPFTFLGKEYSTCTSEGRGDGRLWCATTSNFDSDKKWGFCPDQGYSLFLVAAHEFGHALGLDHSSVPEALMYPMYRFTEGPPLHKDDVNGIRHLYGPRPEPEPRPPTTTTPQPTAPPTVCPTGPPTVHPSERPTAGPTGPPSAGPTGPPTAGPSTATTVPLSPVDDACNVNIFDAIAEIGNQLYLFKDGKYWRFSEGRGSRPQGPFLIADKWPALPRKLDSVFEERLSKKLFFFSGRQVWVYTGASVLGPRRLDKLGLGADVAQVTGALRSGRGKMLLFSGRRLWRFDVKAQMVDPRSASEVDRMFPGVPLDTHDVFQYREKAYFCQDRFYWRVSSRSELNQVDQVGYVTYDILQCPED
test_readout: pKi
One number for each entry, as −log10 of the molar value.

COCCCc1ccc(C2CCN(S(=O)(=O)C3(C(=O)NO)CCOCC3)CC2)nc1 : 8.75
O=C(NO)C1(S(=O)(=O)N2CCN(c3ccc(-c4ccsc4)c(F)c3)CC2)CCOCC1 : 8.94

For the 2 molecules below, give their pKi values.
1. O=C(NO)C1(S(=O)(=O)N2CCN(c3ccc(-c4cccnc4)c(F)c3)CC2)CCOCC1
2. O=C(NCCCCC1CCN(S(=O)(=O)C2(C(=O)NO)CCOCC2)CC1)C(=O)c1cccs1

[reply]
[8.17, 7.26]
